# credit: patent US4016287A

assay: acute toxicity, LD50 mouse i.p.; conditions: in vivo, ip
Measured attribute: LD50

The recorded LD50 for `CCCCCCCCCCCCCCCCOC(=O)CNC(=O)c1ccccc1` is > 4000 mg/kg

---

system: dinitrochlorobenzene-eczema; experiment: antiphlogistic activity, dinitrochlorobenzene-eczema method; type: in vivo, guinea pigs; conditions: Cavia porcellus, topical; ethanolic 5% solution on shaved flanks, 30 minutes before 1% dinitrochlorobenzene; visual evaluation after 22 hours; read-out: Inhibition of dinitrochlorobenzene-eczema over control
Binary call on inhibition in vivo at 5 %: True from 40% upward, False beneath that.

input: Hi, just wondering whether CCCCCCCCCCCCCCCCOC(=O)C(C)NC(C)=O (stereo not drawn) [B, n-acetyl-alanine hexadecyl ester] shows inhibition in vivo at 5 % of 40% or higher.
output: False

input: Hi, just wondering whether CCCCCCCCCCCCCCCCOC(=O)CCNC(C)=O [J, n-acetyl-β-alanine hexadecyl ester] shows inhibition in vivo at 5 % of 40% or higher.
output: False

input: Hi, just wondering whether CCCCCCCCCCCCCCCCOC(=O)CN(C)C(C)=O [D, n-acetyl-sarcosine hexadecyl ester] shows inhibition in vivo at 5 % of 40% or higher.
output: False

input: Hi, just wondering whether CCCCCCCCCCCCCCCCOC(=O)CNC(=O)CC [G, n-propionyl-glycine hexadecyl ester] shows inhibition in vivo at 5 % of 40% or higher.
output: False

input: Hi, just wondering whether CCCCCCCCCCCCCCCCOC(=O)CNC(C)=O [A, n-acetyl-glycine hexadecyl ester] shows inhibition in vivo at 5 % of 40% or higher.
output: True

input: Hi, just wondering whether O=C(O)CCCNC(=O)c1ccc(-c2ccccc2)cc1 [I] shows inhibition in vivo at 5 % of 40% or higher.
output: False

input: Hi, just wondering whether CCCCCCCCCCCCCC(=O)NCC(=O)O [H, n-tetradecanoyl-glycine] shows inhibition in vivo at 5 % of 40% or higher.
output: False

input: Hi, just wondering whether CCCCCCCCCCCCCCCCOC(=O)CNC(=O)c1ccccc1 [Compound C, n-benzoyl-glycine hexadecyl ester] shows inhibition in vivo at 5 % of 40% or higher.
output: False

input: Hi, just wondering whether CCCCCCCCCCCCCCCCOC(=O)CNC=O [F, n-formyl-glycine hexadecyl ester] shows inhibition in vivo at 5 % of 40% or higher.
output: True
